Recorded values, source PubChem BioAssay (NCI).

# Test system: SW-620 colon
# Protocol summary: NCI-60 one-dose screen, 48 h (100 = growth as untreated, 0 = no growth, -100 = all killed)
# Condition description: 10 µM unless noted
Compounds without any hit were thinned out: in the full panel of roughly 83,000, 20% have a hit.
Observable: growth (%)
Supply the numeric figure in %, leaving out any unit text.

In the examples that follow, each entry is paired with its recorded growth.
# Compound, Tested on, Observable, Observed value
measured = [
    ("O=C1/C(=C\\c2coc3ccccc3c2=O)c2ccccc2N1c1c(Cl)cccc1Cl", "SW-620 colon", "growth", 35),
    ("Cc1ccc(-c2cc(-c3ccccc3)n(-c3ccccc3)n2)cc1", "SW-620 colon", "growth", 99.9),
]

Query: So what growth did CCCCOP(=O)(OCCCC)C(C(=O)OCC)C(CC(=O)OCC)C(=O)OCC (stereo not drawn) get with SW-620 colon?
Response: 106

====

# Tested on: COLO 205 colon
# Protocol summary: NCI-60 one-dose screen, 48 h
# Condition description: 10 µM unless noted
Compounds without any hit were thinned out: in the full panel of roughly 83,000, 20% have a hit. Active and inactive are the calls of the source. How the source made its calls: active means growth percent below 10; inactive means the rest.
Return exactly one item of 1 for active, -1 for inactive

# Chemical string, Tested on, Class name
measured = [
    ("CC(=O)Nc1cc2c3c(cccc3c1)-c1ccccc1-2", "COLO 205 colon", -1),
    ("COc1ccc(-c2cc(-c3nnc(SCC(=O)Nc4ccc(C(C)=O)cc4)n3-c3ccccc3)c3ccccc3n2)cc1OC", "COLO 205 colon", -1),
    ("C/C(=C\\CCc1ccoc1)CC/C=C(\\C)CCCN1CCOCC1", "COLO 205 colon", -1),
    ("CC[n+]1c(/C=C/c2ccc(N3CCCC3)cc2)cccc1/C=C/c1ccc(N2CCCC2)cc1", "COLO 205 colon", 1),
    ("CN(C)CCC(=O)Nc1ccc(-n2cc(-c3cccc(NC(=S)Nc4cccc(-c5cn(-c6ccc(NC(=O)CCN(C)C)cc6)nn5)c4)c3)nn2)cc1", "COLO 205 colon", -1),
]

Query: Hi team, can someone confirm the assay call for `N[C@H](CS)C(=O)O` ?
Response: -1

Query: Record: `COc1cnc2c(c1)C(=O)c1c-2n(CCCn2ccnc2)c(=O)c2cc(F)ccc12`
Response: 1

Query: Also check `CCCCc1n(Cc2ccc3ccccc3c2)cc[n+]1Cc1ccc2ccccc2c1`
Response: 1

====

# Tested on: SN12C renal
# Protocol summary: NCI-60 one-dose screen, 48 h
# Condition description: 10 µM unless noted
About 83,000 compounds went through this panel and 20% of them were active in at least one assay; those are over-represented in the sample as a whole. The source made the active and inactive calls. Rule for the calls: active = growth percent below 10; inactive = the rest.
Answer with one of the outcomes given here: class 1 = active, class 0 = inactive

Consider the following illustrative entries.
# Molecule, Class name
records = [
    ("COc1cnc2c(c1)C(=O)c1c-2n(CCCN2CCNCC2)c(=O)c2cc(F)ccc12", "class 1"),
    ("O=C(O)CCNS(=O)(=O)c1ccc(-c2ccccc2)cc1", "class 0"),
    ("COc1ccc2cc(C3=CC(=O)CCC3)ccc2c1", "class 0"),
    ("Cc1ccc2nc(-c3ccc(N(C)C)c(Br)c3)cn2c1", "class 0"),
]

Query: Hi, sorry to bother you, what did the test record for `COc1ccc(NC(=O)c2ccccc2-c2ccccc2)c(C(N)=O)c1` ?
Response: class 0
